Source listed as the nanobody polyreactivity screen of Harvey et al. (2022).

# test name: yeast display, Sf9 membrane polyspecificity reagent, FACS + sequencing; frameworks hold sequencing errors
observable: polyreactivity (PSR sort gate)

These recorded examples may help you get a feel for the data.
QVQLVESGGGLVQAGGSLRLSCAASGIIFRRYAMGWYRQAPGKERELVAVISSGGSTNYADSVKGRFTISRDNAKNTVYLQMYSLKPEDTADYYCAAPSQSRGYYYWGQGTQVTVSS ... high polyreactivity
QVQLVESGGGLVQAGGSLRLSCAASGNTFNSYAMGWYRQAPGKERELVAAISSSTGRTYYADSVKGRFTISRDNAKNTVYLQMNSLKPEDTAVYYCNAYLYLSRNGYWGQGTQVTVSS ... high polyreactivity
QVQLVESGGGLVQAGGSLRLSCAASGSTFYRNAMGWYRQAPGKERELVATITFNGGSTYYADSVKGRFTISRDNAKNTVYLQMNSLKPEDTAVYYCNTDWRGDPELYDYWGQGTQVTVSS ... low polyreactivity
QVQLVESGGGLVQAGGSLRLSCAPSGSIFSYYDIGWYIQAPGKERELVAAISWDGGDRTYADSVKGRFTISRDNAKNTVYLQMTSLKPEDTAVYYFAAGWDASYGYDYWGQGTQLTVSS ... low polyreactivity
QVQIVDSGGGLVQAGGSLRLSCAASGLIIGPYAMGWYRQAPGKERELVAAITSGTTTYYADSVKGRFTISRDNAKNTVYLQMNSLKPEDTAVYYCAAYWPVNSQPIQIGYLYDYWGQGTQVTVSS ... low polyreactivity
QVQLVESGGGLVQAGGSLRLSCAASGFSFTSNAMAWYRQAPGKERELVAAITTRGGSTYYADSVKGRFTLSRDNAKNTVDLPMNSLKPEDTSVYYCAARYSYWGLLRYDYWGQGTQVTVSS ... high polyreactivity
QVQLVESGGGLVQAGGILRLSCAASGFIFSSNAMGWYRQAPGKERELVAAITSSGGGTYYADSVKGRFTISRDNAKNTVYLQMNSLKPEDTAVYYCNAAYKYAIPSYGYWGQGTQVTVSS ... low polyreactivity
QVQLVESGGGLVQAGGSLRLSCAASGYTFKRYAMGWSRQAPGKERELVAAISSSGSSTYYADSVKGRFTISRDNAKNTVYLQMNSLKPEDTAVYYCAAVYRYGYWGQGTQVTVSS ... high polyreactivity

stdin: Name the reported polyreactivity (PSR sort gate) value associated with the sequence QVQLVESGGGLVQAGGSLRLSCAASGIILDEYAMGWYRQAPGKERELVAAITWIGGSTYADSVKGRFTISRDNAKNTVYLQMNSLKPEDTAVYYCAADYPSLYVWYGYGWYKYDYWGQGTQVTVSS
stdout: low polyreactivity

stdin: Name the reported polyreactivity (PSR sort gate) value associated with the sequence QVQLVESGGGLVQAGGSLPLSCASSGSTFSTYAMGWYRQAPGKERELVAAIRWSGGSTYYADSVKGRFTLSRDNAKNTVYLLMTSLKPEDTAVYYCAKGIRRWYGGSDYWGQGTQVTVSS
stdout: low polyreactivity

stdin: Name the reported polyreactivity (PSR sort gate) value associated with the sequence QVQLVESGGGLVQAGGSLRLSCAASGLTFGSYAMGWYRQAPGKERELVAAISRSGITYYADSVKGRFTISRDNAKNTVYLQMNSLKPEDTAVYYWAVTQNSKSTKIRPDQGDYGGQGTQVTVSS
stdout: high polyreactivity

stdin: Name the reported polyreactivity (PSR sort gate) value associated with the sequence QVQLVESGGGLVQAGGSLRVSCAASGSTFRKYAMGWYRQAPGKEREFVAAITSSGGSTYYADSVKGRFTISRDNAKNTLYLQMNSLKPEDTAVYYCAARGDSVSTAYNYWGQGTQVTVSS
stdout: high polyreactivity

stdin: Name the reported polyreactivity (PSR sort gate) value associated with the sequence QVQLVESGGGLVQAGGSLRLSCAASGRTFFKYVMGWYRQAPGKERELVAAISYRSGSTYYADSVKGRFTISRDNAKNTVYLQMNSLKPEDTAVYYCAKEPPPVKGDYWGQGTQVTVSS
stdout: low polyreactivity

stdin: Name the reported polyreactivity (PSR sort gate) value associated with the sequence QVQLVESGGGLVQAGGSLRLSCAASGSIFDYNAMGWYRQAPGKEREFVAAISSSAGSTYYADSVKGRFTISRDNAKNTVYLQMNSLKPEDTAVYYCAARYQSPFRTYRFGMDYWGQGTQVTVSS
stdout: low polyreactivity
